# measured on: T1, mouse common cytokine receptor γ-chain (IL-2Rγ) (mouse, UniProt P34902 23-263, limits assumed)
# T1 construct: Recombinant mouse IL-2Rγ protein; also called mo IL-2R; mouse IL-2R gamma
# T1 sequence (looked up): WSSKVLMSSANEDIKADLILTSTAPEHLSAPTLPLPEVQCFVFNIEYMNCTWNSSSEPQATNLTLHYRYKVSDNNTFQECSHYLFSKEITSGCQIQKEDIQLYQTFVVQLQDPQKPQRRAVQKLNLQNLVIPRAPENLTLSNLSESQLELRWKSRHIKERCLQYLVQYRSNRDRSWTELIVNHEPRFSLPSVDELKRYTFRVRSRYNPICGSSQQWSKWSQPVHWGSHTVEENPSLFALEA
# test description: P.E. binding ELISA
parameter: PE binding ELISA OD (OD450 nm)
Please respond with the number in OD450 nm and leave the unit unwritten.

Worked examples follow.
FJ1427_P035MP07G04 (VHH, tested as periplasmic extract; also called Clone nr) VHH: EVQLVESGGGLVQAGGSLRLSCAASGRTLSRYAMGWFRQAPGKEREFVTANSWGGDTYYADSVQGRFTFSRDNAKNTVYLQMNSLQPEDTAVYYCAAAPTSFATTAYSSSNSYAYWGQGTQVTVSS
0.047
FJ1427_P035MP07B11 (VHH, tested as periplasmic extract; also called Clone nr) VHH: QVQLVESGGGLVQAGGSLRLSCAASGRALSRLAMGWFRQAPGKEREFVVASSWGDDTFYADSVEGRFTFSRDNAKSTVYLQMNSLQPGDTAVYYCAAAPTSFATTAYSSSNSYAYWGQGTQVTVPS
0.246
FJ1427_P035MP07E09 (VHH, tested as periplasmic extract; also called Clone nr) VHH: QVQLQESGGGLVQAGGSLRLSCAASGRTLSRYAMGWFRQAPGKEREFVTANSWGGDTYYADSVQGRFTFSRDNAKNTVYLQMNSLQPEDTAVYYCAAAPTSFATTAYSSSNSYAYWGQGTQVTVSS
0.045
FJ1427_P035MP07A06 (VHH, tested as periplasmic extract; also called Clone nr) VHH: QVQLVESGGGLVQPGGSLRLSCAASGRTLSRYAMGWFRQAPGKEREFVTANSWGGDTYYADSVQGRFTFSRDNAKNTVYLQMNSLQPEDTAVYYCAAAPTSFATTAYSSSNSYAYWGQGTQVTVSS
0.047
FJ1427_P035MP07F01 (VHH, tested as periplasmic extract; also called Clone nr) VHH: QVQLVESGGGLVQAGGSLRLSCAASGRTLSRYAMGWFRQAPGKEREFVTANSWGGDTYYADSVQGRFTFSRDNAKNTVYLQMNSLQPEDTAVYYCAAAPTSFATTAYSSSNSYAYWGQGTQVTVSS
0.047

Look up PE binding ELISA OD for this binder: FJ1427_P035MP07H10 (VHH, tested as periplasmic extract; also called Clone nr; 656) VHH: EVQLVESGGGLVQAGGSLRLSCAASGRALSRLAMGWFRQAPGKEREFVVASSWGDDTFYADSVKGRFTFSRDNAKNTVYLQMNSLQPGDTAVYYCAAAPTSFATTAYSSSNSYAYWGQGTQVTVSS
0.049

Look up PE binding ELISA OD for this binder: FJ1427_P035MP07D05 (VHH, tested as periplasmic extract; also called Clone nr) VHH: QVQLVESGGGLVQAGGSLRLSCAASGRTLSRNAMGWFRQAPGKEREFVAADSWGGDTFYADSVEGRFTFSRDNAKNAVYLQMNSLQPEDTAVYYCAGAPTSFATTAYSSSNSYRYWGQGTQVTVSS
0.054

Look up PE binding ELISA OD for this binder: FJ1427_P035MP07B05 (VHH, tested as periplasmic extract; also called Clone nr; 610) VHH: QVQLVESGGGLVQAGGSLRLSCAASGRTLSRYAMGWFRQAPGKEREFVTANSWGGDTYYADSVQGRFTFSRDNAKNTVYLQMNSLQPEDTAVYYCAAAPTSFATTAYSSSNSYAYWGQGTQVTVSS
0.045
